// data source = patent US20260139048A1

ASSAYED_SYSTEM: T1, His-tagged cynomolgus TIGIT (cynomolgus, UniProt A0A7N9I9V4 89-209)
T1 construct: SPR analyte; also called cynomolgus TIGIT protein; not shown: His tag
T1 sequence (A0A7N9I9V4 entry or part of it): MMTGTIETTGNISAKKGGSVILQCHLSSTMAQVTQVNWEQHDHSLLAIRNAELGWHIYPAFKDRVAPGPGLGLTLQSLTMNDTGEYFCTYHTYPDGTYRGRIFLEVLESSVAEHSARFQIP
METHOD_SUMMARY: SPR (Biacore T200), antibody captured, His-tagged TIGIT analyte
Reported Kd values follow for various binders

The cases that follow already have their Kd on record.
[[record]]
binder = "huTIGIT-6-4 (antibody, human IgG1, kappa, V domains shown, Humanized IgG; also called 6VH6.M7 + 6VL1.M1) VH: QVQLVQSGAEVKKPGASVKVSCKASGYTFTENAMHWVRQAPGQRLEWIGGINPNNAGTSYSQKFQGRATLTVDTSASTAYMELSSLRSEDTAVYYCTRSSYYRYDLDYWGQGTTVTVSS VL: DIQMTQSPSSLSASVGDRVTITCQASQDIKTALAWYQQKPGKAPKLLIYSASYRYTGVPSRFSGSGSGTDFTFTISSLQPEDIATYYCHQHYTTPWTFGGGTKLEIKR"
meas_value = "260 nM"

[[record]]
binder = "huTIGIT-19-3 (antibody, human IgG1, kappa, V domains shown, Humanized IgG; also called 19VH4.M10 + 19VL1.M4) VH: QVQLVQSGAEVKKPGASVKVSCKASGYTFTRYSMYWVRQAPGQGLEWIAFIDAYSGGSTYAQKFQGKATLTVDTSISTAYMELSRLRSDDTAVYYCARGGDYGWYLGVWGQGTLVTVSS VL: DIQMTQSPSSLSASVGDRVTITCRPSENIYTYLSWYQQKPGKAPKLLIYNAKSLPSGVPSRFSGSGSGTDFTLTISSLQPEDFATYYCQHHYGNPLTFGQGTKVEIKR"
meas_value = "0.054 nM"


Let us move to another entry and its Kd.
Value of measured Kd for the entry huTIGIT-3-1 (antibody, human IgG1, kappa, V domains shown, Humanized IgG; also called 3VH3.M4 + 3VL4.M6) VH: EVQLVESGGGLVQPGGSLRLSCAASGFTFSSYGMSWVRQAPGKGLELVATIKSSGGSTNLADSVKGRFTISRDNSKNTLYLQMNSLRAEDTAVYYCVRGYFDYWGQGTTVTVSS VL: DIQMTQSPSSLSASVGDRVTITCRASQDIKTALAWYQQKPGKSPKLLIYWASTRQSGVPSRFSGSGSGTDFTLTISSLQPEDVATYYCQQYYSTPYTFGGGTKVEIKR : 18 nM
